- protocol-text: Ex vivo biodistribution in normal mice
- Design: species or system ddY mice
- test-parameters: i.v., 60 min after injection, mean (SD), 5 animals

compound: CN(C)c1ccc(C2=N[O][99Tc-]3(=[O])([NH]2)[NH2+]C(c2ccc4nc(-c5ccc(N(C)C)cc5)sc4c2)=N[O]3)cc1 [[^99mTc]BT1B]
Biodistribution of radioactivity, Liver: 19.04 (3.61) % injected dose per gram
--
compound: CN(C)c1ccc(-c2nc3ccc(C4=N[O][99Tc-]5(=[O])([NH]4)[NH2+]C(c4ccc6nc(-c7ccc(N(C)C)cc7)sc6c4)=N[O]5)cc3s2)cc1 [[^99mTc]BT2B]
Biodistribution of radioactivity, Liver: 35.76 (3.34) % injected dose per gram
--
compound: CN(C)c1ccc(/C=C/c2ccc(C3=N[O][99Tc-]4(=[O])([NH]C(c5ccc(N(C)C)cc5)=N[O]4)[NH2+]3)cc2)cc1 (single isomer, unassigned) [[^99mTc]SB1A]
Biodistribution of radioactivity, Liver: 22.16 (2.20) % injected dose per gram
--
compound: CN(C)c1ccc(/C=C/c2ccc(C3=N[O][99Tc-]4(=[O])([NH]3)[NH2+]C(c3ccc(/C=C/c5ccc(N(C)C)cc5)cc3)=N[O]4)cc2)cc1 (single isomer, unassigned) [[^99mTc]SB2A]
Biodistribution of radioactivity, Liver: 24.95 (3.38) % injected dose per gram

* * *

Below, each entry is listed alongside its reported Biodistribution of radioactivity, Intestine.
- protocol-text: Ex vivo biodistribution in normal mice
- Parameters: species or system ddY mice
- test-parameters: i.v., 10 min after injection, mean (SD), 5 animals
- Method: To evaluate brain uptake of ^99mTc-Ham complexes, biodistribution experiments of ^99mTc-Ham complexes were performed in normal mice. […] The radioactivity in the brains remained low until 60 min postinjection. […] A saline solution (100 μL) of ^99mTc-Ham complexes (20 kBq) containing EtOH (10 μL) was injected directly into the tail vein of ddY mice (male, 5 weeks old). […] The organs of interest were removed and weighed, and radioactivity was measured using a γ counter (PerkinElmer). […]
result-type: Biodistribution of radioactivity, Intestine

molecule: CN(C)c1ccc(/C=C/c2ccc(C3=N[O][99Tc-]4(=[O])([NH]C(c5ccc(N(C)C)cc5)=N[O]4)[NH2+]3)cc2)cc1 (single isomer, unassigned) [[^99mTc]SB1A]
recorded-result: 4.27 (0.88) % injected dose per gram
//
molecule: CN(C)c1ccc(C2=N[O][99Tc-]3(=[O])([NH]2)[NH2+]C(c2ccc4nc(-c5ccc(N(C)C)cc5)sc4c2)=N[O]3)cc1 [[^99mTc]BT1B]
recorded-result: 2.00 (0.86) % injected dose per gram
//
molecule: CN(C)c1ccc(/C=C/c2ccc(C3=N[O][99Tc-]4(=[O])([NH]3)[NH2+]C(c3ccc(/C=C/c5ccc(N(C)C)cc5)cc3)=N[O]4)cc2)cc1 (single isomer, unassigned) [[^99mTc]SB2A]
recorded-result: 1.71 (0.11) % injected dose per gram
//
molecule: CN(C)c1ccc(-c2nc3ccc(C4=N[O][99Tc-]5(=[O])([NH]4)[NH2+]C(c4ccc6nc(-c7ccc(N(C)C)cc7)sc6c4)=N[O]5)cc3s2)cc1 [[^99mTc]BT2B]
recorded-result: 1.97 (0.26) % injected dose per gram

* * *

- protocol-text: Ex vivo biodistribution in normal mice
- Parameters: species or system ddY mice
- test-parameters: i.v., 30 min after injection, mean (SD), 5 animals

compound: CN(C)c1ccc(-c2nc3ccc(C4=N[O][99Tc-]5(=[O])([NH]4)[NH2+]C(c4ccc6nc(-c7ccc(N(C)C)cc7)sc6c4)=N[O]5)cc3s2)cc1 [[^99mTc]BT2B]
Biodistribution of radioactivity, Lung: 5.38 (1.16) % injected dose per gram
--
compound: CN(C)c1ccc(/C=C/c2ccc(C3=N[O][99Tc-]4(=[O])([NH]3)[NH2+]C(c3ccc(/C=C/c5ccc(N(C)C)cc5)cc3)=N[O]4)cc2)cc1 (single isomer, unassigned) [[^99mTc]SB2A]
Biodistribution of radioactivity, Lung: 7.26 (1.02) % injected dose per gram
--
compound: CN(C)c1ccc(C2=N[O][99Tc-]3(=[O])([NH]2)[NH2+]C(c2ccc4nc(-c5ccc(N(C)C)cc5)sc4c2)=N[O]3)cc1 [[^99mTc]BT1B]
Biodistribution of radioactivity, Lung: 5.00 (0.34) % injected dose per gram
--
compound: CN(C)c1ccc(/C=C/c2ccc(C3=N[O][99Tc-]4(=[O])([NH]C(c5ccc(N(C)C)cc5)=N[O]4)[NH2+]3)cc2)cc1 (single isomer, unassigned) [[^99mTc]SB1A]
Biodistribution of radioactivity, Lung: 5.31 (0.67) % injected dose per gram

* * *

- protocol-text: Ex vivo biodistribution in normal mice
- Design: species or system ddY mice
- test-parameters: i.v., 2 min after injection, mean (SD), 5 animals
Below, each entry is listed alongside its reported Biodistribution of radioactivity, Spleen.

compound: CN(C)c1ccc(-c2nc3ccc(C4=N[O][99Tc-]5(=[O])([NH]4)[NH2+]C(c4ccc6nc(-c7ccc(N(C)C)cc7)sc6c4)=N[O]5)cc3s2)cc1 [[^99mTc]BT2B]
Biodistribution of radioactivity, Spleen: 10.83 (1.58) % injected dose per gram

compound: CN(C)c1ccc(/C=C/c2ccc(C3=N[O][99Tc-]4(=[O])([NH]3)[NH2+]C(c3ccc(/C=C/c5ccc(N(C)C)cc5)cc3)=N[O]4)cc2)cc1 (single isomer, unassigned) [[^99mTc]SB2A]
Biodistribution of radioactivity, Spleen: 10.76 (0.96) % injected dose per gram

compound: CN(C)c1ccc(C2=N[O][99Tc-]3(=[O])([NH]2)[NH2+]C(c2ccc4nc(-c5ccc(N(C)C)cc5)sc4c2)=N[O]3)cc1 [[^99mTc]BT1B]
Biodistribution of radioactivity, Spleen: 3.83 (0.84) % injected dose per gram

compound: CN(C)c1ccc(/C=C/c2ccc(C3=N[O][99Tc-]4(=[O])([NH]C(c5ccc(N(C)C)cc5)=N[O]4)[NH2+]3)cc2)cc1 (single isomer, unassigned) [[^99mTc]SB1A]
Biodistribution of radioactivity, Spleen: 9.73 (3.34) % injected dose per gram

* * *

Below, each entry is listed alongside its reported Biodistribution of radioactivity, Spleen.
- protocol-text: Ex vivo biodistribution in normal mice
- Set-up: species or system ddY mice
- test-parameters: i.v., 60 min after injection, mean (SD), 5 animals
result-type: Biodistribution of radioactivity, Spleen

compound: CN(C)c1ccc(/C=C/c2ccc(C3=N[O][99Tc-]4(=[O])([NH]C(c5ccc(N(C)C)cc5)=N[O]4)[NH2+]3)cc2)cc1 (single isomer, unassigned) [[^99mTc]SB1A]
recorded-result: 5.44 (0.49) % injected dose per gram

compound: CN(C)c1ccc(C2=N[O][99Tc-]3(=[O])([NH]2)[NH2+]C(c2ccc4nc(-c5ccc(N(C)C)cc5)sc4c2)=N[O]3)cc1 [[^99mTc]BT1B]
recorded-result: 1.36 (0.54) % injected dose per gram

compound: CN(C)c1ccc(-c2nc3ccc(C4=N[O][99Tc-]5(=[O])([NH]4)[NH2+]C(c4ccc6nc(-c7ccc(N(C)C)cc7)sc6c4)=N[O]5)cc3s2)cc1 [[^99mTc]BT2B]
recorded-result: 4.80 (0.63) % injected dose per gram

compound: CN(C)c1ccc(/C=C/c2ccc(C3=N[O][99Tc-]4(=[O])([NH]3)[NH2+]C(c3ccc(/C=C/c5ccc(N(C)C)cc5)cc3)=N[O]4)cc2)cc1 (single isomer, unassigned) [[^99mTc]SB2A]
recorded-result: 7.58 (2.60) % injected dose per gram

* * *

- protocol-text: Ex vivo biodistribution in normal mice
- Parameters: species or system ddY mice
- test-parameters: i.v., 60 min after injection, mean (SD), 5 animals
result-type: Biodistribution of radioactivity, Intestine

compound: CN(C)c1ccc(/C=C/c2ccc(C3=N[O][99Tc-]4(=[O])([NH]C(c5ccc(N(C)C)cc5)=N[O]4)[NH2+]3)cc2)cc1 (single isomer, unassigned) [[^99mTc]SB1A]
recorded-result: 14.34 (2.35) % injected dose per gram

compound: CN(C)c1ccc(C2=N[O][99Tc-]3(=[O])([NH]2)[NH2+]C(c2ccc4nc(-c5ccc(N(C)C)cc5)sc4c2)=N[O]3)cc1 [[^99mTc]BT1B]
recorded-result: 9.95 (2.65) % injected dose per gram

compound: CN(C)c1ccc(-c2nc3ccc(C4=N[O][99Tc-]5(=[O])([NH]4)[NH2+]C(c4ccc6nc(-c7ccc(N(C)C)cc7)sc6c4)=N[O]5)cc3s2)cc1 [[^99mTc]BT2B]
recorded-result: 13.90 (1.52) % injected dose per gram

compound: CN(C)c1ccc(/C=C/c2ccc(C3=N[O][99Tc-]4(=[O])([NH]3)[NH2+]C(c3ccc(/C=C/c5ccc(N(C)C)cc5)cc3)=N[O]4)cc2)cc1 (single isomer, unassigned) [[^99mTc]SB2A]
recorded-result: 4.05 (0.55) % injected dose per gram
